# Assay text: qHTS of pediatric cancer cell lines to identify multiple opportunities for drug repurposing: Orthogonal 3D viability screen for RD cells
# Conditions: RD rhabdomyosarcoma 3D spheroid viability, PI/Hoechst imaging, 72 h; series mostly up to 30.7 µM
Some of the results follow. Records with an inconclusive call do not appear. The source made the active and inactive calls. Calls follow the shape of the dose curve; as a rule, active = well fitted inhibition curve with a large enough effect; inconclusive = small, poorly fitted or top-dose-only effect; inactive = flat fitted curve, though single readings scatter.
Result category, one only: active, inactive

Sample answers from the record:
CC[C@]1(O)C[C@@H]2CN(CCc3c([nH]c4ccccc34)[C@@](C(=O)OC)(c3cc4c(cc3OC)N(C)[C@H]3[C@@](O)(C(=O)OC)[C@H](OC(C)=O)[C@]5(CC)C=CCN6CC[C@]43[C@@H]65)C2)C1    active
CC1(C)O[C@@H]2C[C@@H]3[C@H]4C[C@@H](F)C5=CC(=O)C=C[C@]5(C)[C@@]4(F)[C@@H](O)C[C@]3(C)[C@]2(C(=O)CO)O1    active

Please share the test call associated with `C=C1C(=CC=C2CCC[C@]3(C)[C@@H]([C@H](C)C=C[C@H](C)C(C)C)CC[C@@H]23)C[C@@H](O)C[C@@H]1O` .
inactive

Test call for this compound, please: `CC[C@H]1CN2CCc3cc(OC)c(OC)cc3[C@@H]2C[C@@H]1C[C@H]1NCCc2cc(OC)c(OC)cc21`
active
